assay: NCI Yeast Anticancer Drug Screen. Data for the bub3 strain (AID 167); conditions: S. cerevisiae bub3 mutant strain, at 50.0 µM (retest, dose inferred, filed as 5.0), stronger effect = higher value
About 79,000 compounds went through this panel and 15% of them were active in at least one assay; those are over-represented in the sample as a whole.
The following molecules are shown together with reported growth inhibition values.
Expressed in %, but write only the number.

Some molecules with known growth inhibition results, for comparison:
molecule=Oc1c(Cl)cc(Cl)cc1Cc1cc(Cl)cc(Cl)c1O unit_tag=% data_value=98
molecule="CC(=O)OC1OC(=O)C(C)(C(C)=O)C1C (stereo unspecified)" unit_tag=% data_value=93
molecule="COc1ccc(/C=C2\\CCCC(CN(C)C)C2=O)cc1 (stereo unspecified)" unit_tag=% data_value=23

Challenge: Indicate its recorded growth inhibition; the molecule in question is `Cc1c2ccccc2c(C=O)c2ccccc12`
Response given: 67

Challenge: Look up growth inhibition of `CCc1[nH]c(=O)nc(N)c1-c1ccc(N2CCCCC2)c([N+](=O)[O-])c1` and report it.
Response given: -32

Challenge: For OCC(O)C(O)C(O)C(/C=N/Nc1ccccc1)=N/Nc1ccccc1 (stereo unspecified) , write its growth inhibition.
Response given: 8

Challenge: Recall and state the measured growth inhibition for `O=C(CCC(=O)OCCOc1ccccc1)OCCOc1ccccc1` .
Response given: 7

Challenge: Give growth inhibition for `CN(C)/C=C1\CCc2ccc([N+](=O)[O-])cc2C1=O`
Response given: 19

---

test: NCI Yeast Anticancer Drug Screen. Data for the mlh1 rad18 strain (AID 175); details: S. cerevisiae mlh1 rad18 strain growth inhibition; at 50.0 µM
About 79,000 compounds went through this panel and 15% of them were active in at least one assay; those are over-represented in the sample as a whole. Active and inactive are the calls of the source. Rule as the data show it: active = growth inhibition above about 70%; inactive = the rest.
Choose one outcome from this list and give only that: 1 = active, -1 = inactive

molecule=Cc1ccc(S(=O)(=O)Nc2cc(S(=O)(=O)O)c(N)c3c2C(=O)c2ccccc2C3=O)cc1 group=-1
molecule=CCn1c2ccccc2c2ccc(N=Cc3ccc(N(C)C)cc3)cc21 group=-1
molecule="N#CC1(C2SCCS2=O)C2=C(C(=O)c3ccccc3C2=O)N2CCCC21 (stereo not drawn)" group=1
molecule="COC(=O)C(=O)C(C(=O)C(c1ccccc1)c1ccccc1)c1nc2n(c1O)/C(=N/C(=O)Nc1ccc(Cl)cc1)N=N2 (stereo not drawn)" group=1

Challenge: What did this assay record as the result for `C=CCNC(=O)c1ccccc1SC(C)=O` ?
Response given: 1

---

growth inhibition listing for selected compounds.
test: NCI Yeast Anticancer Drug Screen. Data for the cln2 rad14 strain (AID 165);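 note: 0% = growth equal to vehicle treated cultures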; details: S. cerevisiae cln2 rad14 strain, at 5.0 µM (retest, dose inferred, filed as 0.5), stronger effect = higher value
The panel holds about 79,000 compounds, 15% with a hit somewhere; the sample as a whole holds those more often.
Provide only the numeric value, understood in %.

Recorded results for 5 compounds are shown here.
compound="COC1C(O)C(C)OC(OC2C(Oc3cccc4c(O)c5c(=O)oc6ccc(C)c7c(=O)oc(c34)c5c67)OC(C)C3O[C@H](c4ccccc4)OC32)C1O (stereo partly specified)" property_measured="growth inhibition" data_value=59
compound=O=C(O)C#CC(=O)O property_measured="growth inhibition" data_value=31
compound="C=CCc1c2c(ccc(=O)c1O)-c1c(cc(OC)c(OC)c1OC)CCC2NC(C)=O (stereo unspecified)" property_measured="growth inhibition" data_value=-12
compound="Cc1cccc2c1Oc1cc(Cl)ccc1C2NC(=O)CCN1CCCCC1 (stereo unspecified)" property_measured="growth inhibition" data_value=27
compound="COc1cccc2c1C(=O)c1c(O)c3c(c(O)c1C2=O)C[C@@](O)(C(C)=O)C[C@@H]3OC1CC(O)C(O)C(C)O1 (stereo partly specified)" property_measured="growth inhibition" data_value=46

Challenge: Fill in growth inhibition for record `CN1CCCc2cc(/C=C\c3ccnc4ccccc34)ccc21`
Response given: -6

Challenge: Tell me its growth inhibition given NC(CC(=O)O)C(=O)O (stereo unspecified) as the entry.
Response given: 4

Challenge: Recall and state the measured growth inhibition for `O=S(=O)(c1ccc(F)cc1)c1ccc(F)cc1` .
Response given: -5

Challenge: State, in one line, measured growth inhibition of `Cc1n(-c2ccccc2)c2c([n+]1Cc1ccc([N+](=O)[O-])cc1)C(=O)c1ccccc1C2=O`
Response given: 1

Challenge: Note growth inhibition for the compound shown: `O=C(N/C=C/C=C/Sc1ccccc1)OCc1ccccc1`
Response given: 23

Challenge: Please indicate growth inhibition recorded for O=NC1C(Br)C2CC1C1C(Cl)C(Cl)CC21 (stereo unspecified)
Response given: -2

Challenge: Return the recorded growth inhibition value; entry: OCC(O)C(O)C(O)C(O)C(/C=N/Nc1ccccc1)=N/Nc1ccccc1 (stereo unspecified)
Response given: 2

Challenge: Give growth inhibition for the following compound: `c1ccc(-c2conc2-c2ccccc2)cc1`
Response given: -32

Challenge: Identify the reported growth inhibition for the following entry. `CC1=C(C(=O)Nc2c(C)cccc2C)C(c2ccc3c(c2)OCO3)C(C(=O)Nc2c(C)cccc2C)=C(C)N1`
Response given: 16

Challenge: # return recorded growth inhibition for entry CC(C)C1=CC23CCC4C(C)(C(=O)O)CCCC4(C)C2CC1C1C(=O)OC(=O)C13 (stereo unspecified)
Response given: 85

Challenge: Indicate the recorded growth inhibition value for this compound: CC(NNC(=S)N1CCN(c2ccccn2)CC1)c1nccc2ccccc12 (stereo unspecified)
Response given: 63

Challenge: Tell me measured growth inhibition for Cc1cc(NS(=O)(=O)c2ccc(N=Nc3cc(N=Nc4ccc(S(=O)(=O)Nc5cc(C)nc(C)n5)cc4)c4c(NC(=O)C(Cl)Cl)cccc4c3OC(=O)C(Cl)Cl)cc2)nc(C)n1 (tested in a mixture with another compound) please.
Response given: 16

Challenge: Supply growth inhibition value. Item: `Nc1nc(Cl)cc(NCCCCCCCCCCNc2cc(Cl)nc(N)n2)n1`
Response given: 10

Challenge: Let me know recorded growth inhibition for CCSSc1ccccc1C(=O)NC(CC)CO (stereo unspecified) , thanks.
Response given: 0

Challenge: Tell me measured growth inhibition for CSc1ncnc2c1ncn2C1OC(CO)C(O)C1O (stereo unspecified) please.
Response given: -1

Challenge: Identify growth inhibition associated with the compound `O=C1c2cccc(O)c2C(=O)c2cccc(O)c21`
Response given: 4

---

assay: NCI Yeast Anticancer Drug Screen. Data for the cln2 rad14 strain (AID 165);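 note: 0% = growth equal to vehicle treated cultures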; conditions: S. cerevisiae cln2 rad14 strain, at 5.0 µM (retest, dose inferred, filed as 0.5), stronger effect = higher value
Compounds without any hit were thinned out: in the full panel of roughly 79,000, 15% have a hit.
PROPERTY_MEASURED: growth inhibition (%)
Please respond with the number in % and leave the unit unwritten.

// solved cases for growth inhibition follow
molecule=Clc1ccc(CNNCc2ccc(Cl)cc2)cc1 unit_tag=% data_value=-1
molecule=CCCCCCN(CCCCCC)C(=O)C1=C(C)NC(C)=C(C(=O)N(CCCCCC)CCCCCC)C1 unit_tag=% data_value=33
molecule="Nc1ncnc2c1ncn2C1SC(CO)C(O)C1O (stereo unspecified)" unit_tag=% data_value=-4
molecule=CN(C)Cc1cc(CN(C)C)c(O)c(CN(C)C)c1 unit_tag=% data_value=-3
molecule=CN(C)c1nc(N)c(C#N)c(C#N)c1C#N unit_tag=% data_value=27

// next item, growth inhibition requested
Challenge: Indicate its recorded growth inhibition; the molecule in question is `CCSC(=NC)Nc1ccc(Oc2ccc(Cl)cc2)cc1`
Response given: 33

---

experiment: NCI Yeast Anticancer Drug Screen. Data for the mlh1 rad18 strain (AID 175); settings: S. cerevisiae mlh1 rad18 strain growth inhibition; at 50.0 µM (retest, dose inferred, filed as 5.0)
About 79,000 compounds went through this panel and 15% of them were active in at least one assay; those are over-represented in the sample as a whole. Calls of active or inactive are those of the source. No stated cut-off is given here; in the data, active means growth inhibition above about 70%; inactive means the rest.
Outcome (select one): active, inactive

molecule=Nc1c2ccccc2nc2ccccc12 group=active
molecule=Nc1ccccc1Oc1ccc(Cl)cc1Cl group=inactive
molecule=c1cc2c3c(c1)c1cc4c(cc1c[n+]3CC2)OCO4 group=inactive
molecule=c1ccc(N=c2cnc3c(ccc4ccccc43)o2)cc1 group=active
molecule=O=C1C(Cl)=C(Cl)C(Cl)(Cl)C(Cl)=C1Cl group=active

Challenge: How did this test come out for CCOP(=O)(OCC)C(C)(CC)NC(=O)C(C(F)(F)F)C(F)(F)F (configuration not stated) ?
Response given: inactive

Challenge: Any idea what this test logged for `CN(C)C(=S)SC(=S)N(C)C` ?
Response given: active

---

experiment: NCI Yeast Anticancer Drug Screen. Data for the cln2 rad14 strain (AID 165);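 note: 0% = growth equal to vehicle treated cultures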; details: S. cerevisiae cln2 rad14 strain, at 50.0 µM (retest, dose inferred, filed as 5.0)
This is part of a sample that, as a whole, favours compounds with a hit. Of some 79,000 tested, about 15% had one in any assay. Active and inactive are the calls of the source. Rule as the data show it: active = growth inhibition above about 70%; inactive = the rest.
Return exactly one item of 1 for active, 0 for inactive

Answered examples (2):
compound=Cc1nc2c(nc1C)C(=O)c1ccccc1C2=O group=1
compound=Nc1ccccc1Oc1ccc(Cl)cc1Cl group=1

Shift focus to the following entry.
Challenge: # fetch the recorded call for COc1cc2c(c(OC)c1OC)-c1ccc(SC)c(=O)cc1C(NC(=O)c1ccccc1)CC2 (configuration not stated) here
Response given: 0
